# Target or test system: Hypoxia inducible factors; HIF-1-alpha, HIF-2-alpha (Homo sapiens, UniProt Q16665+Q99814)
# Protocol: Inhibition of hypoxia-induced HIF1 activation in human T47D cells by reporter gene assay
# Assay type: cell-based
Assay metric: IC50 (µM)

CC1=C(CCC2=C(C)C(=O)C(O)=C3C(C)(C)C(=O)CC[C@]23C)[C@]2(C)CCC(=O)C(C)(C)O[C@H]2CC1 [10,11-DIHYDROSODWANONE B] : 20
C[C@H]1CC[C@@H]2OC(C)(C)[C@@H](O)CC=C2[C@@]1(C)CC[C@]1(C)[C@@H](C)CC[C@@H]2OC(C)(C)[C@@]3(O)CC[C@]21O3 : 15
